Target: CDK4/CycD1 (Homo sapiens)
Experiment: Kinase activity test (mobility shift assay, EZ Reader), CDK4
Listing of recorded IC50 by entry.
Record the value in nM, omitting the unit from your answer.

compound	IC50 [nM]
CN1CCCn2c1nc1c(F)cc(-c3nc(NC4CCN(S(C)(=O)=O)CC4)ncc3Cl)cc12	18.6
CC(C)N1CCOc2c(F)cc(-c3nc(NC4CCCC(C(=O)N(C)C)C4)ncc3F)cc21 (stereo not shown)	17.7
CC(C)N1C(=O)COc2c(F)cc(-c3nc(N[C@@H]4CCOC[C@H]4O)ncc3Cl)cc21	42.2

Would you kindly look at the next entry?
*Q* Name the reported IC50 value associated with the compound "CC(C)N1CCOc2c(F)cc(-c3nc(NC4CCN(S(C)(=O)=O)CC4)ncc3Cl)cc21"
*A* 7.19

* * *

Listing of recorded HL— by entry.
Test: Preclinical rat pharmacokinetic test
Type: in vivo
Settings: male SD rats, gavage (p.o.), 10 mg/kg, plasma
Record the value in h, omitting the unit from your answer.

Use the examples below as a reference point.
compound	HL— [h]
CC(C)n1c(N2CCOC2=O)nc2c(F)cc(-c3nc(N[C@@H]4CCOC[C@H]4O)ncc3C(F)(F)F)cc21 [TB-27]	3.69
CC(C)n1c(N2CCOCC2)nc2c(F)cc(-c3nc(N[C@@H]4CCOC[C@H]4O)ncc3Cl)cc21 [TB-12]	3.14
CCS(=O)(=O)N1CCC(Nc2ncc(Cl)c(-c3cc(F)c4nc(N5CCOC5=O)n(C(C)C)c4c3)n2)CC1 [TB-31]	1.34

Would you kindly look at the next entry?
*Q* Name the reported HL— value associated with the compound C[C@H]1CCN(C)c2nc3c(F)cc(-c4nc(N[C@@H]5CCOC[C@H]5O)ncc4Cl)cc3n21 [TB-92]
*A* 1.21

* * *

Assay: Preclinical rat pharmacokinetic test
Format: in vivo
Settings: Sprague-Dawley (SD), rat, po; male SD rats, gavage (p.o.), 10 mg/kg, plasma
value-type: AUC(0-t) (ng·h/mL)
Record the value in ng·h/mL, omitting the unit from your answer.

*Q* Name the reported AUC(0-t) value associated with the molecule "CC(C)c1c(C(C)(C)O)nc2ccc(-c3nc(N[C@@H]4CCOC[C@H]4O)ncc3Cl)cn12"
*A* 4470

*Q* Now the molecule CC1CC(=O)N(C)c2nc3c(F)cc(-c4nc(N[C@@H]5CCOC[C@H]5O)ncc4Cl)cc3n21 (some centres unmarked)
*A* 3530

* * *

Listing of recorded HL— by entry.
Experiment: Preclinical rat pharmacokinetic test
Type: in vivo
Details: male SD rats, gavage (p.o.), 10 mg/kg, plasma
Record the value in h, omitting the unit from your answer.

Use the examples below as a reference point.
molecule	value
CC1CC(=O)N(C)c2nc3c(F)cc(-c4nc(N[C@@H]5CCOC[C@H]5O)ncc4Cl)cc3n21 (stereo partly drawn)	1.77
CC(C)c1c(C(C)(C)O)nc2ccc(-c3nc(N[C@@H]4CCOC[C@H]4O)ncc3Cl)cn12	1.69

Would you kindly look at the next entry?
*Q* Name the reported HL— value associated with the molecule "CC(C)n1c(N2CCOC2=O)nc2c(F)cc(-c3nc(N[C@@H]4CCOC[C@H]4O)ncc3Cl)cc21"
*A* 3.14

* * *

Target: CDK4/CycD1 (Homo sapiens)
Assay: Kinase activity test (mobility shift assay, EZ Reader), CDK4
pIC50: −log10 of the molar value.
I would appreciate it if you labelled entries Criterion met when pIC50 is 8 or higher, otherwise Criterion not met.

Take a look at these entries with their results.
compound	label
CC(C)c1c(C(C)(C)O)nc2c(F)cc(-c3nc(N[C@@H]4CCOC[C@H]4O)ncc3Cl)cn12	Criterion not met
CC(C)N1CCOc2c(F)cc(-c3nc(N[C@@H]4CCOC[C@H]4O)ncc3Cl)cc21	Criterion met

*Q* Determine whether measured pIC50 meets or exceeds 8 for "CC(C)C(=O)N(c1cc(F)cc(-c2nc(N[C@@H]3CCOC[C@H]3O)ncc2Cl)c1)C(C)C"
*A* Criterion not met

*Q* Now the compound CC(C)N1CCOc2c(F)cc(-c3nc(NC4CCCC(C(=O)N(C)C)C4)ncc3Cl)cc21 (stereo not shown)
*A* Criterion not met

*Q* Now the compound "COc1ncc(-c2nc(N[C@@H]3CCOC[C@H]3O)ncc2F)c2c1CCC2"
*A* Criterion not met

*Q* Now the compound "CC(C)N1CCOc2c(F)cc(-c3nc(N[C@@H]4CCC[C@H](NS(C)(=O)=O)C4)ncc3Cl)cc21"
*A* Criterion not met

*Q* Now the compound "COC(=O)N1CCC[C@@H](Nc2ncc(Cl)c(-c3cc(F)c4c(c3)N(C(C)C)CCO4)n2)C1"
*A* Criterion not met

*Q* Now the compound "CC(C)N1CCOc2c(F)cc(-c3nc(NC4CCOCC4)ncc3F)cc21"
*A* Criterion not met

*Q* Now the compound "CC(C)N1CCOc2c(F)cc(-c3nc(NC4CCN(S(C)(=O)=O)CC4)ncc3F)cc21"
*A* Criterion met

*Q* Now the compound "CC(C)N1CCOc2c(F)cc(-c3nc(N[C@@H]4CCOC[C@H]4O)ncc3F)cc21"
*A* Criterion met

* * *

Experiment: Preclinical rat pharmacokinetic test
Assay type: in vivo
Conditions: Sprague-Dawley (SD), rat, po; male SD rats, gavage (p.o.), 10 mg/kg, plasma
Procedure: Healthy adult SD rats, male, 6-8 weeks old, weighing 200-300 g. EDTA-Na2 anticoagulant. Analytical balance, animal weight scale, magnetic stirrer, freezing centrifuge, single-channel manual pipette. […] Shimadzu liquid phase and Triple Quad TM 6500+AB mass spectrometry were utilized to establish a quantitative assay for the compounds to be tested. The pro-drug concentration in plasma was determined. […]
Listing of recorded Cmax by entry.
Record the value in ng/mL, omitting the unit from your answer.

compound	value-type	value
CC(C)c1c(C(C)(C)O)nc2ccc(-c3nc(N[C@@H]4CCOC[C@H]4O)ncc3Cl)cn12	Cmax	611

*Q* Name the reported Cmax value associated with the compound CC1CC(=O)N(C)c2nc3c(F)cc(-c4nc(N[C@@H]5CCOC[C@H]5O)ncc4Cl)cc3n21 (some centres unmarked)
*A* 920

* * *

Target: CDK6/CyclinD3 (Homo sapiens)
Sequence (Q00534 whole entry, species assumed): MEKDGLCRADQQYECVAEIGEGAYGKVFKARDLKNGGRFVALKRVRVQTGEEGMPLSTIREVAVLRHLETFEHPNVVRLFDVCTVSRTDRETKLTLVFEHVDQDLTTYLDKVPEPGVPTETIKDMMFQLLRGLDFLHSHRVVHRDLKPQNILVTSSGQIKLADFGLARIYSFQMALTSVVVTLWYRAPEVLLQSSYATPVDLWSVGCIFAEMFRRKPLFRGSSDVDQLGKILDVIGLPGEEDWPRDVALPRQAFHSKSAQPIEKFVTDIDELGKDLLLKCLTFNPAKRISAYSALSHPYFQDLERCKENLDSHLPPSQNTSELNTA
Sequence (P30281 whole entry partner, species assumed): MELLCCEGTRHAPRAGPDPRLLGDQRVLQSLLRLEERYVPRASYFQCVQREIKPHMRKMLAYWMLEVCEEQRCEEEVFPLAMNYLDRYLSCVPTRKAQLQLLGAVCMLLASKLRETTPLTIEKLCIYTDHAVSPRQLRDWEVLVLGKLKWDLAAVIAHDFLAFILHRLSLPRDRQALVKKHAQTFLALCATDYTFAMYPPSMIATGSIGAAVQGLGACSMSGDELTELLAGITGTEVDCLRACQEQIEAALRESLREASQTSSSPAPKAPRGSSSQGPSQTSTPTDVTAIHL
Experiment: Kinase activity test (mobility shift assay, EZ Reader), CDK6
Details: CDK6/CyclinD3 5.00 nM, ATP 350 μM, FL-Peptide34
Listing of recorded IC50 by entry.
Record the value in nM, omitting the unit from your answer.

chemical-structure	target-entity	value-type	value
CC(C)N1CCOc2c(F)cc(-c3nc(N[C@@H]4CCOC[C@H]4O)ncc3F)cc21	CDK6/CyclinD3 (Homo sapiens)	IC50	30.2
CC(C)N1CCOc2c(F)cc(-c3nc(N[C@@H]4CCOC[C@H]4O)ncc3Cl)cc21	CDK6/CyclinD3 (Homo sapiens)	IC50	23.6
CC(C)N1CCOc2c(F)cc(-c3ccnc(N[C@@H]4CCOC[C@H]4O)n3)cc21	CDK6/CyclinD3 (Homo sapiens)	IC50	116
COc1ncc(-c2nc(N[C@@H]3CCOC[C@H]3O)ncc2F)c2c1CCC2	CDK6/CyclinD3 (Homo sapiens)	IC50	2580
C[C@H]1CCN(C)c2nc3c(F)cc(-c4nc(Nc5ccncc5)ncc4Cl)cc3n21	CDK6/CyclinD3 (Homo sapiens)	IC50	95.2
CC(C)c1c(C(C)(C)O)nc2c(F)cc(-c3nc(N[C@@H]4CCOC[C@H]4O)ncc3Cl)cn12	CDK6/CyclinD3 (Homo sapiens)	IC50	203
CC(C)N1CCOc2c(F)cc(-c3nc(NC4CCN(S(C)(=O)=O)CC4)ncc3F)cc21	CDK6/CyclinD3 (Homo sapiens)	IC50	13.7
CC(C)N1CCOc2c(F)cc(-c3nc(NC4CCOCC4)ncc3F)cc21	CDK6/CyclinD3 (Homo sapiens)	IC50	67.3

*Q* Name the reported IC50 value associated with the molecule "CC(C)C(=O)N(c1cc(F)cc(-c2nc(N[C@@H]3CCOC[C@H]3O)ncc2Cl)c1)C(C)C"
*A* 319

*Q* Now the molecule "CC(C)N1CCOc2c(F)cc(-c3nc(NC4CCN(S(C)(=O)=O)CC4)ncc3Cl)cc21"
*A* 24.7

*Q* Now the molecule "CC(C)N1C(=O)COc2c(F)cc(-c3nc(N[C@@H]4CCOC[C@H]4O)ncc3Cl)cc21"
*A* 109

*Q* Now the molecule "CC(C)N1CCOc2c(F)cc(-c3nc(N[C@@H]4CCC[C@H](NS(C)(=O)=O)C4)ncc3Cl)cc21"
*A* 83.4

* * *

Molecular target: CDK4/CycD1 (Homo sapiens, UniProt P11802)
Sequence (P11802 whole entry, species assumed): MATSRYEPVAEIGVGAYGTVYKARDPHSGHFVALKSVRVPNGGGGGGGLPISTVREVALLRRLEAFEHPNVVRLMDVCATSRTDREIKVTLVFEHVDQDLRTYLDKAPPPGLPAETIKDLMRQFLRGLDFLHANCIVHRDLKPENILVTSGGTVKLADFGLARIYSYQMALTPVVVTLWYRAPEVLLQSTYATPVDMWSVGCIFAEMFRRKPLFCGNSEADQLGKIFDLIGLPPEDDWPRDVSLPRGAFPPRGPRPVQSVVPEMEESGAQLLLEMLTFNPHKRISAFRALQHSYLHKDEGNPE
Sequence (P24385 whole entry partner, species assumed): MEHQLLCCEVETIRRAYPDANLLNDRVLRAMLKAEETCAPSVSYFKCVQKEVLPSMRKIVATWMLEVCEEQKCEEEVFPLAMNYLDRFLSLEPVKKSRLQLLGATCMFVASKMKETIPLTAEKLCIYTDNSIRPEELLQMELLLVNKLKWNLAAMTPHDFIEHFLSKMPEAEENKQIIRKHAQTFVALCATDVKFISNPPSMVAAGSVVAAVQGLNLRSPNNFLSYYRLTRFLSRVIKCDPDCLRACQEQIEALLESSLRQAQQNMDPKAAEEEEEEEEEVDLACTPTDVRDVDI
Experiment: Kinase activity test (mobility shift assay, EZ Reader), CDK4
value-type: pIC50
Lab note: report pIC50 as minus log10 of the concentration in molar units, number only.

chemical-structure	value-type	value
CC(=O)N1CCC[C@@H](Nc2ncc(Cl)c(-c3cc(F)c4c(c3)N(C(C)C)CCO4)n2)C1	pIC50	7.81
C[C@H]1CCN(C)c2nc3c(F)cc(-c4nc(Nc5ccncc5)ncc4Cl)cc3n21	pIC50	7.90

*Q* Name the reported pIC50 value associated with the compound "CC(C)N1CCOc2c(F)cc(-c3ccnc(N[C@@H]4CCOC[C@H]4O)n3)cc21"
*A* 7.98
